assay.overview: Selectivity index, ratio of IC50 for rat L6 cells to IC50 for Leishmania donovani MHOM/SD/62/1S-CL2D axenic amastigotes
Assay type: toxicity, cell-based
measurement.parameters: read-out: Ratio IC50
measured.parameter: selectivity ratio

Provide only the value of recorded selectivity ratio for Cl.Cl.Cl.Cl.N=C(N)c1ccc(OCCCCOc2ccc(C(=N)N)cc2Cl)c(Cl)c1
5

Provide only the value of recorded selectivity ratio for Cl.Cl.N=C(Nc1ccc(OCCCCCOc2ccc(NC(=N)c3ccccc3)cc2)cc1)c1ccccc1
< 1

Provide only the value of recorded selectivity ratio for CNC(=N)c1ccc(OCCCCCOc2ccc(C(=N)NC)cc2)cc1.Cl.Cl
32

Provide only the value of recorded selectivity ratio for Cl.Cl.c1cc(C2=NCCN2)ccc1OCCCCOc1ccc(C2=NCCN2)cc1
20

Provide only the value of recorded selectivity ratio for CC(C)NC(=N)c1ccc(OCCCCCOc2ccc(C(=N)NC(C)C)cc2)cc1.Cl.Cl
8

Provide only the value of recorded selectivity ratio for Cl.Cl.Cl.Cl.N=C(N)c1ccc(OCCCOc2ccc(C(=N)N)cc2Cl)c(Cl)c1
16

Provide only the value of recorded selectivity ratio for Oc1cc(OCCCCCOc2ccc(C3=NCCN3)c(O)c2)ccc1C1=NCCN1
2

Provide only the value of recorded selectivity ratio for Cl.Cl.N=C(N)c1cccc(OCCCCOc2cccc(C(=N)N)c2)c1
4

Provide only the value of recorded selectivity ratio for Cl.Cl.N=C(N)c1ccc(OCCCCCCOc2ccc(C(=N)N)cc2)cc1
5

Provide only the value of recorded selectivity ratio for c1cc(OCCCCCOc2cccc(C3=NCCN3)c2)cc(C2=NCCN2)c1
4

====

assay.overview: Selectivity index, ratio of IC50 for rat L6 cells to IC50 for Trypanosoma brucei rhodesiense STIB900 trypomastigotes
Format: toxicity, cell-based
measurement.parameters: read-out: Ratio IC50
Hi all, reminder that labels come from selectivity ratio, split as low bracket (below 300), middle bracket (300 to below 1000), high bracket (1000 or more)

Lab note: sort CNC(=N)c1ccc(OCCCCCOc2ccc(C(=N)NC)cc2)cc1.Cl.Cl into the matching selectivity ratio band.
high bracket

Lab note: sort Cl.Cl.N=C(N)c1ccc(SCCCCCSc2ccc(C(=N)N)cc2)cc1 into the matching selectivity ratio band.
high bracket

Lab note: sort Cl.Cl.c1cc(C2=NCCN2)ccc1OCCCCOc1ccc(C2=NCCN2)cc1 into the matching selectivity ratio band.
low bracket

Lab note: sort N=C(N)c1ccc(OCCCCCOc2ccc(/C(N)=N\O)cc2)cc1 into the matching selectivity ratio band.
low bracket

Lab note: sort Cl.Cl.N=C(N)c1cccc(OCCCCCOc2cccc(C(=N)N)c2)c1 into the matching selectivity ratio band.
low bracket

Lab note: sort COc1cc(C2=NCCN2)ccc1OCCCOc1ccc(C2=NCCN2)cc1OC.Cl.Cl into the matching selectivity ratio band.
high bracket

Lab note: sort CNC(=N)c1ccc(OCCCOc2ccc(C(=N)NC)cc2OC)c(OC)c1 into the matching selectivity ratio band.
high bracket

Lab note: sort Cl.Cl.N=C(N)c1cccc(OCCCCCCOc2cccc(C(=N)N)c2)c1 into the matching selectivity ratio band.
low bracket

Lab note: sort Fc1cc(OCCCCCOc2ccc(C3=NCCN3)c(F)c2)ccc1C1=NCCN1 into the matching selectivity ratio band.
low bracket

Lab note: sort Cl.Cl.Cl.Cl.N=C(N)c1ccc(OCCCCCOc2ccc(C(=N)N)cc2Cl)c(Cl)c1 into the matching selectivity ratio band.
low bracket

Lab note: sort Cl.Cl.N=C(Nc1ccc(OCCCCCOc2ccc(NC(=N)c3ccccc3)cc2)cc1)c1ccccc1 into the matching selectivity ratio band.
low bracket

Lab note: sort N=C(N)c1ccc(OCCCCCOc2ccc(C(=N)N)cc2[N+](=O)[O-])c([N+](=O)[O-])c1 into the matching selectivity ratio band.
middle bracket

Lab note: sort Cl.Cl.N=C(N)c1cccc(OCCCCOc2cccc(C(=N)N)c2)c1 into the matching selectivity ratio band.
low bracket

Lab note: sort Cl.Cl.c1cc(C2=NCCN2)ccc1OCCCOc1ccc(C2=NCCN2)cc1 into the matching selectivity ratio band.
middle bracket

Lab note: sort Cl.Cl.Cl.Cl.N=C(N)c1ccc(OCCCCOc2ccc(C(=N)N)cc2Cl)c(Cl)c1 into the matching selectivity ratio band.
low bracket

Lab note: sort Cl.Cl.N=C(N)c1ccc(OCCCCCOc2ccc(C(=N)N)cc2C(N)=O)c(C(N)=O)c1 into the matching selectivity ratio band.
high bracket

Lab note: sort Cl.Cl.N=C(N)c1ccc(OCCCCCOc2ccc(C(=N)N)c(F)c2)cc1F into the matching selectivity ratio band.
middle bracket

Lab note: sort CC(C)NC(=N)c1cccc(OCCCCCCOc2cccc(C(=N)NC(C)C)c2)c1 into the matching selectivity ratio band.
middle bracket

Lab note: sort Cl.Cl.N=C(N)c1ccc(OCCCOc2ccc(C(=N)N)cc2)cc1 into the matching selectivity ratio band.
high bracket

Lab note: sort CC(C)NC(=N)c1ccc(NCCCCCNc2ccc(C(=N)NC(C)C)cc2)cc1.Cl into the matching selectivity ratio band.
high bracket

Lab note: sort COc1cc(C2=NCCN2)ccc1OCCCCOc1ccc(C2=NCCN2)cc1OC.Cl.Cl into the matching selectivity ratio band.
high bracket

Lab note: sort N/N=C(\N)c1ccc(OCCCCCOc2ccc(/C(N)=N/N)cc2)cc1 into the matching selectivity ratio band.
low bracket

Lab note: sort CC(C)NC(=N)c1ccc(OCCCOc2ccc(C(=N)NC(C)C)cc2)cc1.Cl.Cl into the matching selectivity ratio band.
high bracket

Lab note: sort COc1cc(C2=NCCN2)ccc1OCCCCCOc1ccc(C2=NCCN2)cc1OC.Cl.Cl into the matching selectivity ratio band.
high bracket

Lab note: sort Cl.Cl.c1cc(C2=NCCN2)ccc1NCCCCCNc1ccc(C2=NCCN2)cc1 into the matching selectivity ratio band.
high bracket

Lab note: sort Cl.Cl.N=C(N)c1ccc(OCCCCOc2ccc(C(=N)N)cc2)cc1 into the matching selectivity ratio band.
middle bracket

Lab note: sort N=C(N)c1ccc(OCCCOc2ccc(C(=O)O)cc2)cc1 into the matching selectivity ratio band.
low bracket

Lab note: sort CC(C)NC(=N)c1ccc(OCCCCCOc2ccc(C(=N)NC(C)C)cc2)cc1.Cl.Cl into the matching selectivity ratio band.
high bracket

Lab note: sort Cl.c1cc(C2=NCCN2)ccc1OCCCCCOc1ccc(C2=NCCN2)cc1 into the matching selectivity ratio band.
high bracket

Lab note: sort CCOC(=O)c1cc(C(=N)N)ccc1OCCCCCOc1ccc(C(=N)N)cc1C(N)=O into the matching selectivity ratio band.
high bracket

Lab note: sort N=C(N)c1ccc(OCCCCOc2ccc(C(=N)N)cc2[N+](=O)[O-])c([N+](=O)[O-])c1 into the matching selectivity ratio band.
low bracket

Lab note: sort COc1cc(C(=N)N)ccc1OCCCCCOc1ccc(C(=N)N)cc1OC.Cl.Cl into the matching selectivity ratio band.
high bracket

Lab note: sort c1cc(OCCCCCCOc2cccc(C3=NCCN3)c2)cc(C2=NCCN2)c1 into the matching selectivity ratio band.
low bracket

====

System: Trypanosoma brucei rhodesiense
assay.overview: Antitrypanosomal activity against Trypanosoma brucei rhodesiense STIB900 trypomastigotes infected in NMRI mouse assessed as mouse survival at 10 mg/kg, ip administered from day 3 to day 6 postinfection
Format: functional
measurement.parameters: route intraperitoneal
So I've got a bunch of compounds here, and I need their Survival values.
Answer format: numeric, days implied, no suffix.

Provide only the value of recorded Survival for Cl.Cl.N=C(N)c1cccc(OCCCCOc2cccc(C(=N)N)c2)c1
20

Provide only the value of recorded Survival for Cl.Cl.c1cc(C2=NCCN2)ccc1OCCCOc1ccc(C2=NCCN2)cc1
22.8

Provide only the value of recorded Survival for COc1cc(C2=NCCN2)ccc1OCCCCOc1ccc(C2=NCCN2)cc1OC.Cl.Cl
18.3

====

assay.overview: Selectivity index, ratio of IC50 for rat L6 cells to IC50 for Leishmania donovani MHOM/SD/62/1S-CL2D axenic amastigotes
Type: toxicity, cell-based
measurement.parameters: read-out: Ratio IC50
So I've got a bunch of compounds here, and I need their selectivity ratio values.
When you answer, write just the number.

Provide only the value of recorded selectivity ratio for c1cc(OCCCCCCOc2cccc(C3=NCCN3)c2)cc(C2=NCCN2)c1
5

Provide only the value of recorded selectivity ratio for CC(C)NC(=N)c1ccc(NCCCCCNc2ccc(C(=N)NC(C)C)cc2)cc1.Cl
22

Provide only the value of recorded selectivity ratio for CN1CCN=C1c1ccc(OCCCCCOc2ccc(C3=NCCN3C)cc2)cc1
2

Provide only the value of recorded selectivity ratio for c1cc(OCCCOc2cccc(C3=NCCN3)c2)cc(C2=NCCN2)c1
1

Provide only the value of recorded selectivity ratio for N/N=C(\N)c1ccc(OCCCCCOc2ccc(/C(N)=N/N)cc2)cc1
1

Provide only the value of recorded selectivity ratio for Cl.Cl.N=C(N)c1cccc(OCCCCCOc2cccc(C(=N)N)c2)c1
6

Provide only the value of recorded selectivity ratio for Cl.Cl.N=C(N)c1ccc(OCCCOc2ccc(C(=N)N)cc2)cc1
6

====

assay.overview: Selectivity index, ratio of IC50 for rat L6 cells to IC50 for chloroquine-resistant Plasmodium falciparum K1
Type: toxicity, cell-based
measurement.parameters: read-out: Ratio IC50
measured.parameter: selectivity ratio
When you answer, write just the number.

Provide only the value of recorded selectivity ratio for CC(C)NC(=N)c1ccc(OCCCCCOc2ccc(C(=N)NC(C)C)cc2)cc1.Cl.Cl
50000

Provide only the value of recorded selectivity ratio for N=C(N)c1ccc(OCCCCCOc2ccc(N)cc2)cc1
54

Provide only the value of recorded selectivity ratio for N/N=C(\N)c1ccc(OCCCCCOc2ccc(/C(N)=N/N)cc2)cc1
99

Provide only the value of recorded selectivity ratio for N=C(N)c1ccc(OCCCCOc2ccc(C(=N)N)cc2[N+](=O)[O-])c([N+](=O)[O-])c1
2380

Provide only the value of recorded selectivity ratio for CC(C)NC(=N)c1ccc(OCCCCCOc2ccc(C(=N)NC(C)C)c(F)c2)cc1F
18700

Provide only the value of recorded selectivity ratio for Cl.Cl.N=C(N)c1ccc(OCCCOc2ccc(C(=N)N)cc2N)c(N)c1
2540
